The measurements presented in this section are drawn from patent US9233086B2.

Known log10 of Ki of a selection of compounds
SYSTEM TESTED: WDR5 (Homo sapiens (Human))
TEST METHOD NOTES: FP based competitive binding assay to WDR5
REPORTED CONDITIONS: 4 nM WDR5Δ23, 0.6 nM 10mer-Thr-FAM tracer; Ki calculated by equation of ref. 31; read-out: Ki ± SD
Where a SMILES comes first, the peptide text is derived from it. The star is where a group is joined. For = O=C*
Log10 applied to Ki; unit prior to transform: µM.

The examples below pair each entry with its known result.
CC(=O)N[C@@H](C)C(=O)N[C@@H](CCCNC(=N)N)C(N)=O [Ac-2mer, Ac-AR-NH2] (Ac-Ala-Arg-NH2) = 1.43
CC(C)C[C@H](NC(=O)[C@H](Cc1c[nH]cn1)NC(=O)[C@@H](NC(=O)[C@H](CCC(=O)O)NC(=O)[C@H](C)NC(=O)[C@H](CCCNC(=N)N)NC(=O)[C@H](C)N)C(C)C)C(=O)N[C@@H](CCCNC(=N)N)C(=O)N[C@@H](CCCCN)C(=O)N[C@@H](CO)C(N)=O [Compound H2N-10mer] = 0.86

query: Form: Entry = COC(=O)[C@H](C)NC(=O)[C@H](CCCNC(=N)N)NC(=O)[C@H](C)NC(C)=O [Δ2c, Ac-ARA-COOCH3] (Ac-Ala-Arg-Ala-OMe) | System = WDR5 (Homo sapiens (Human)) | log10 of Ki = ____
result: 0.20

query: Form: Entry = C[C@H](NC(=O)[C@H](CCCNC(=N)N)NC(=O)[C@H](C)NC=O)C(N)=O [CHO-3mer, CHO-ARA-NH2] (For-Ala-Arg-Ala-NH2) | System = WDR5 (Homo sapiens (Human)) | log10 of Ki = ____
result: 0.51

query: Form: Entry = CC(=O)N[C@@H](C)C(=O)N[C@@H](CCCNC(=N)N)C(=O)N[C@@H](C)C(=O)N[C@@H](CCC(=O)O)C(N)=O [Ac-4mer, Ac-ARAE-NH2] (Ac-ARAE-NH2) | System = WDR5 (Homo sapiens (Human)) | log10 of Ki = ____
result: -1.10

----------
SYSTEM TESTED: WDR5 (Homo sapiens (Human), UniProt P61964)
TEST METHOD NOTES: FP based competitive binding assay to WDR5
REPORTED CONDITIONS: read-out: Binding Affinity to WDR5 (IC50 ± SD); Table 5 peptidomimetics
pIC50: −log10 of the molar value. Where a SMILES comes first, the peptide text is derived from it. [ ]: non-standard residue; d: D form. Ac4c = NC1(C(=O)O)CCC1
ASSAY ENDPOINT: pIC50

The examples below pair each entry with its known result.
CCC(CC)(NC(=O)C(C)C)C(=O)N[C@@H](CCCNC(=N)N)C(=O)NC1(C(N)=O)CCCC1 [Compound 10C] = > 6.00
CCC(CC)(NC(=O)C(C)C)C(=O)N[C@@H](CCCNC(=N)N)C(=O)N[C@@H](C)c1ccccc1 [Compound 11G] = > 4.52
CCC(CC)(NC(=O)C(C)C)C(=O)N[C@H](CCCNC(=N)N)C(=O)NC1(C(N)=O)CCCC1 [Compound 10D] = > 4.70
CC(=O)NC1(C(=O)N[C@@H](CCCNC(=N)N)C(=O)NC2(C(N)=O)CCCC2)CCC1 [Compound 6E] = > 6.00
CCC(CC)(NC(=O)C(C)C)C(=O)N[C@@H](CCCNC(=N)N)C(=O)NC(C(C)C)C(C)C [Compound 11J] = > 5.00

query: Requested read-out: pIC50. Entry: CC(=O)NC1(C(=O)N[C@@H](CCCNC(=N)N)C(=O)N[C@H](C(N)=O)[C@@H](C)O)CCC1 [Compound 6F] (Ac-[Ac4c]-Arg-Thr-NH2)
result: > 6.00

query: Requested read-out: pIC50. Entry: CCC(CC)NC(=O)[C@H](CCCNC(=N)N)NC(=O)C(CC)(CC)NC(=O)C(C)C [Compound 11B]
result: > 6.00

query: Requested read-out: pIC50. Entry: CC(=O)NC1(C(=O)N[C@@H](CCCNC(=N)N)C(=O)N[C@H](C(N)=O)C(C)C)CCCC1 [Compound 4C]
result: > 6.00
